- System under test: Beta-secretase (BACE) (Homo sapiens, UniProt Q9Y5Z0+P56817)
- Protocol notes: Inhibition of beta amyloid production in human HEK293 cells
- Format: functional, cell-based
// reported EC50 per item

{"columns": ["Record smiles", "System under test", "EC50 (nM)"],
 "data": [
  ["CCCN(CCC)C(=O)c1cccc(C(=O)N[C@@H](Cc2cc(F)cc(F)c2)[C@H](O)CN[C@H](C)C(=O)NCC(C)C)c1", "Beta-secretase (BACE) (Homo sapiens, UniProt Q9Y5Z0+P56817)", 600],
  ["CCCN(CCC)C(=O)c1cc(C)cc(C(=O)N[C@@H](Cc2cc(F)cc(F)c2)[C@H](O)CNCc2ccccc2)c1", "Beta-secretase (BACE) (Homo sapiens, UniProt Q9Y5Z0+P56817)", 40],
  ["CCCN(CCC)C(=O)c1cccc(C(=O)N[C@@H](Cc2cc(F)cc(F)c2)[C@H](O)CN[C@@H](C)C(=O)NCC(C)C)c1", "Beta-secretase (BACE) (Homo sapiens, UniProt Q9Y5Z0+P56817)", 230],
  ["CCCN(CCC)C(=O)c1cc(C)cc(C(=O)N[C@@H](Cc2cc(F)cc(F)c2)[C@H](O)CNC(C)(C)C(=O)NCC(C)C)c1", "Beta-secretase (BACE) (Homo sapiens, UniProt Q9Y5Z0+P56817)", 230],
  ["CCCN(CCC)C(=O)c1cc(C)cc(C(=O)N[C@@H](Cc2cc(F)cc(F)c2)[C@H](O)CN[C@@H](C)C(=O)NCC(C)C)c1", "Beta-secretase (BACE) (Homo sapiens, UniProt Q9Y5Z0+P56817)", 80]
]}
